assayed_system: INDY (Homo sapiens)
Sequence (Q86YT5 whole entry): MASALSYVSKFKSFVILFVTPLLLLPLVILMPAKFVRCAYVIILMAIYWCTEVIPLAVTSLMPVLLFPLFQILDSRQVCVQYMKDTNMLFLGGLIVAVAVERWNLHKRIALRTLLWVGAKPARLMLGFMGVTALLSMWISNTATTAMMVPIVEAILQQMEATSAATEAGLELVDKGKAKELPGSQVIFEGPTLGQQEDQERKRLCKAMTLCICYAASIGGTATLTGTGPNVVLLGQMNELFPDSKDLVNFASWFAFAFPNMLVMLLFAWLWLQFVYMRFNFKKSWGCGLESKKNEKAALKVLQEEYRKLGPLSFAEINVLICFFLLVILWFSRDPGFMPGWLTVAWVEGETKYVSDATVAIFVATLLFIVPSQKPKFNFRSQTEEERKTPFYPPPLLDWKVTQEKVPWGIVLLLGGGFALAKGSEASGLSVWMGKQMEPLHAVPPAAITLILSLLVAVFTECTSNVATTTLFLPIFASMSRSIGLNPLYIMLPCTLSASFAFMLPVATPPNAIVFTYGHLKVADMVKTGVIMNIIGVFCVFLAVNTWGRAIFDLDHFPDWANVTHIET
experimental_protocol: 14C-citrate uptake in HepG2 cells endogenously expressing INDY (NaCT)
Type: cell-based
settings: endogenous INDY
Measured IC50 accompanies every entry in the list below.
Note: a bare number is incomplete; add the unit.

Would you please look over these solved cases?
*Q* What does the data say about its IC50? Entry: CC(C)Oc1ccc(S(=O)(=O)N2CCC(C(=O)NCc3ccccc3F)CC2)cc1 [Example 24]
*A* 4200 nM

*Q* What does the data say about its IC50? Entry: [N-]=[N+]=NCc1ccccc1CNC(=O)C1CCN(S(=O)(=O)c2cc(Cl)cc(Cl)c2)CC1 [Example 92]
*A* 800 nM

*Q* What does the data say about its IC50? Entry: COc1ccccc1S(=O)(=O)N1CCC(C(=O)NCc2ccccc2F)CC1 [Example 19]
*A* 3400 nM

Continuing:
*Q* What does the data say about its IC50? Entry: CC(F)c1cccc(S(=O)(=O)N2CCC(C(=O)NCc3ccccc3F)CC2)c1 (centres unmarked) [Example 112]
*A* 900 nM

*Q* What does the data say about its IC50? Entry: O=C(NCc1cccc(F)c1)C1CCN(S(=O)(=O)c2cc(Cl)cc(Cl)c2)CC1 [Example 115]
*A* 100 nM

*Q* What does the data say about its IC50? Entry: O=C(NCc1ccccn1)C1CCN(S(=O)(=O)c2ccc(C(F)(F)F)cc2)CC1 [Example 57]
*A* 2500 nM

*Q* What does the data say about its IC50? Entry: CC(C)(C)c1ccc(S(=O)(=O)N2CCC(C(=O)NCc3ccccc3Cl)CC2)cc1 [Example 39]
*A* 2100 nM

*Q* What does the data say about its IC50? Entry: O=C(NCc1ccccc1CO)C1CCN(S(=O)(=O)/C=C/c2ccccc2)CC1 [Example 69]
*A* 4500 nM

====

Measured IC50 accompanies every entry in the list below.
assayed_system: INDY (Homo sapiens)
experimental_protocol: 14C-citrate uptake in HEK293 cells overexpressing recombinant human INDY (NaCT)
Assay type: cell-based
Design: expressed in transfected cells; host or cells: HEK293
Quick note: give the figure in µM, leave out the unit.

Would you please look over these solved cases?
*Q* What does the data say about its IC50? Entry: "O=C(NCc1ccccn1)C1CN(S(=O)(=O)c2cc(Cl)cc(Cl)c2)C1"
*A* 7.5

*Q* What does the data say about its IC50? Entry: "O=C(NCc1ccccc1CO)C1CCN(S(=O)(=O)c2cc(Cl)cc(Cl)c2)CC1"
*A* 0.6

*Q* What does the data say about its IC50? Entry: "O=C(NCc1ccccn1)C1CCN(S(=O)(=O)c2cc(Cl)cc(C(F)(F)F)c2)CC1"
*A* 0.7

*Q* What does the data say about its IC50? Entry: "CC(C)(C)c1ccc(S(=O)(=O)N2CC(C(=O)NCc3ccccc3Cl)C2)cc1"
*A* 6.4

*Q* What does the data say about its IC50? Entry: "O=C(NCc1cccc(F)c1)C1CCN(S(=O)(=O)/C=C/c2ccccc2)CC1"
*A* 7.4

Continuing:
*Q* What does the data say about its IC50? Entry: "O=C(NCc1ccccc1Br)C1CCN(S(=O)(=O)/C=C/c2ccccc2)CC1"
*A* 5.1

*Q* What does the data say about its IC50? Entry: "Cc1cc(C)cc(S(=O)(=O)N2CCC(C(=O)NCc3ccccn3)CC2)c1"
*A* 1.3

*Q* What does the data say about its IC50? Entry: "O=C(NCc1ccccc1F)C1CCN(S(=O)(=O)c2ccc(Cl)cc2)CC1"
*A* 3

*Q* What does the data say about its IC50? Entry: "O=C(NCc1ccccc1F)C1CCN(S(=O)(=O)c2ccc(OC(F)(F)F)cc2)CC1"
*A* 0.5

*Q* What does the data say about its IC50? Entry: "O=C(NCc1cc(F)ccc1F)C1CCN(S(=O)(=O)/C=C/c2ccccc2)CC1"
*A* 4.6

*Q* What does the data say about its IC50? Entry: "O=C(NCc1ccccc1O)C1CCN(S(=O)(=O)/C=C/c2ccccc2)CC1"
*A* 1.8

*Q* What does the data say about its IC50? Entry: "O=C(NCc1ccccn1)C1CCN(S(=O)(=O)c2cc(Cl)cc(Cl)c2)CC1"
*A* 0.8

*Q* What does the data say about its IC50? Entry: "O=C(NCc1ccccn1)C1CCN(S(=O)(=O)c2cc(C(F)(F)F)cc(C(F)(F)F)c2)CC1"
*A* 3.2

*Q* What does the data say about its IC50? Entry: "CC(C)(C)c1ccc(S(=O)(=O)N2CCC(C(=O)NCc3ccccc3F)CC2)cc1"
*A* 0.2

*Q* What does the data say about its IC50? Entry: "O=C(NCc1ccccn1)C1CCN(S(=O)(=O)c2ccc(Cl)c(Cl)c2)CC1"
*A* 18.3

*Q* What does the data say about its IC50? Entry: "COc1ccccc1S(=O)(=O)N1CCC(C(=O)NCc2ccccc2F)CC1"
*A* 5

*Q* What does the data say about its IC50? Entry: "O=C(NCc1ccccn1)C1CCN(S(=O)(=O)c2cccc(OC(F)(F)F)c2)CC1"
*A* 16.4

*Q* What does the data say about its IC50? Entry: "O=C(NCc1ccccn1)C1CCN(S(=O)(=O)c2ccccc2Cl)CC1"
*A* 14.4

*Q* What does the data say about its IC50? Entry: "Cc1cc(S(=O)(=O)N2CCC(C(=O)NCc3ccccn3)CC2)ccc1Cl"
*A* 18.8

*Q* What does the data say about its IC50? Entry: "CCc1ccc(S(=O)(=O)N2CCC(C(=O)NCc3ccccc3F)CC2)cc1"
*A* 1

*Q* What does the data say about its IC50? Entry: "CC(C)(C)c1cccc(S(=O)(=O)N2CCC(C(=O)NCc3ccccc3F)CC2)c1"
*A* 0.5
